- assay: FRG1 promoter luciferase signal modulators, primary screen, FRG1 inhibition for FSHD, cell-based, C2C12 myotubes, firefly/Renilla luciferase, luminescence (AID 1084)
- condition.details: higher = more signal, called active from +8 up or from −8 down
# binarize z-score: threshold 0.4 inclusive, high side Fulfilled, low side Not fulfilled

### Prompt Please indicate if the recorded z-score for CC(C)CON=C1C[C@@H](O)[C@@H](O)[C@@H]2[C@@H]3C(=O)N(c4cccc(Oc5ccccc5)c4)C(=O)[C@@H]3CC[C@H]12 meets or exceeds 0.4.
### Response Not fulfilled

### Prompt Please indicate if the recorded z-score for CCN1C(=O)[C@H]2[C@H]3[C@H](O)[C@H](O)CC(=NOC)[C@@H]3CC[C@H]2C1=O meets or exceeds 0.4.
### Response Not fulfilled

### Prompt Please indicate if the recorded z-score for C[C@@H](c1ccccc1)N1C(=O)[C@H]2[C@H]3[C@H](O)[C@H](O)CC(=O)[C@@H]3CC[C@H]2C1=O meets or exceeds 0.4.
### Response Not fulfilled

### Prompt Please indicate if the recorded z-score for Cc1ccc(S(=O)(=O)N[C@H]2COC(=O)[C@@H](C)COC(=O)[C@H](C)NC(=O)CC=C[C@H]2C)cc1 meets or exceeds 0.4.
### Response Fulfilled

### Prompt Please indicate if the recorded z-score for CC(C)=NOC[C@@H](O)COCc1ccco1 meets or exceeds 0.4.
### Response Fulfilled

### Prompt Please indicate if the recorded z-score for COC(=O)[C@H](C)NC(=O)CCC1CC(OC(=O)NCCc2ccc(F)cc2)CC2(CCCC(COC(=O)NCCCN3CCCC3=O)O2)O1 (stereo partly specified) meets or exceeds 0.4.
### Response Fulfilled
